Where these numbers come from: ChEMBL document CHEMBL1201862

- Target Or System: Replicative DNA helicase DnaB (Mycobacterium tuberculosis)
- Sequence (P9WMR3 1-399, added parts left off): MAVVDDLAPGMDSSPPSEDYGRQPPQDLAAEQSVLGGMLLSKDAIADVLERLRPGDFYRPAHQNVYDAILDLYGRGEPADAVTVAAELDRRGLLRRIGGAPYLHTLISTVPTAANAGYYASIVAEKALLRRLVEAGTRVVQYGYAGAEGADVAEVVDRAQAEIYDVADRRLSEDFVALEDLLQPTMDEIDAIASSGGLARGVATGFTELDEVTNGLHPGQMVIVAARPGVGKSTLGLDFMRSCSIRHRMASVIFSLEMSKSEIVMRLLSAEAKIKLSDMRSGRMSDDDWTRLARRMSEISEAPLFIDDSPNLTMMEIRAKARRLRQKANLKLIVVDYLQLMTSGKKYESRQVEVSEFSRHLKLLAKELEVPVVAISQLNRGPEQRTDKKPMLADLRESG
- Experiment Summary: DnaB intein splicing inhibitors, dose response, biochemical, cell-free fluorescence (AID 449749)
- Assay type: functional
Active and inactive are the calls of the source. Rule as the data show it: actives have a measured AC50 and inactives only a lower limit.
Tick one outcome: TRUE for active, FALSE for inactive

Req: Answer briefly: the call reported for O=S(=O)(Nc1c(O)ccc2ccccc12)c1ccc(F)cc1 in this assay.
Resp: TRUE

Req: For this compound, state the assay outcome: CCc1ccc(S(=O)(=O)/N=C2\C=C(NS(=O)(=O)c3ccccc3)C(=O)c3ccccc32)cc1
Resp: TRUE

Req: Hi team, can someone confirm the assay call for N#CC1=C(N)Oc2[nH]nc(-c3cccs3)c2C1c1ccoc1 (stereo unspecified) ?
Resp: TRUE

Req: Which outcome did this test record for the compound O=C(Nc1cccc(OC(=O)c2ccco2)c1)c1ccco1 ?
Resp: TRUE

Req: GET /call?item= Cc1cc(=O)n(-c2ccccc2Cl)[nH]1 returns the recorded outcome of this test.
Resp: TRUE

Req: I would be grateful if you could indicate the recorded call for Cc1n[nH]c2c1C(c1ccco1)C(C#N)=C(N)O2 (stereo unspecified) .
Resp: TRUE

Req: What call does the record list for C/C(CC(=O)Nc1ccccn1)=N\NC(=O)c1cccc(C)c1 ?
Resp: TRUE

Req: Just curious, what result did O=c1oc(-c2ccccc2)cc(Cl)c1Cl get here?
Resp: TRUE

Req: Could you check what this test reported for Cn1c(SCC(=O)NCC2CCCO2)ncc(C(=O)Nc2ccc(F)cc2)c1=O (stereo unspecified) ?
Resp: TRUE

Req: Answer briefly: the call reported for CC(=O)c1c(Cl)nc2cccc3c2c1-c1ccccc1C3=O in this assay.
Resp: FALSE

Req: How was CC(NC(=O)COC(=O)c1cc(NS(=O)(=O)c2ccc(Cl)c([N+](=O)[O-])c2)ccc1O)C1CC2CCC1C2 (stereo unspecified) classified in this test?
Resp: TRUE
